tested on: UO-31; assay: In vitro cytotoxicity, Development Therapeutics Program; assay type: cell-based; details: UO-31, renal cancer; 1.0×10^−5 M

LINE NOTATION: CN(C)CC(=O)Nc1ccc2c(c1)C(=O)c1cc(NC(=O)CN(C)C)ccc1C2=O
Cellular growth rate (%): −82.55

LINE NOTATION: CC(=O)Nc1ccc2c(c1)C(=O)c1cc(NC(C)=O)ccc1C2=O
Cellular growth rate (%): 96.42

LINE NOTATION: O=C1c2ccc(NC(=O)C3CC3)cc2C(=O)c2cc(NC(=O)C3CC3)ccc21
Cellular growth rate (%): 95.55

LINE NOTATION: CCN(CC)CCC(=O)Nc1ccc2c(c1)C(=O)c1cc(NC(=O)CCN(CC)CC)ccc1C2=O
Cellular growth rate (%): −31.53

LINE NOTATION: O=C(CCN1CCCC1)Nc1ccc2c(c1)C(=O)c1cc(NC(=O)CCN3CCCC3)ccc1C2=O
Cellular growth rate (%): 5.27

---

experiment: MTT assay in H1299 cells; format: cell-based; settings: human, H1299 cells (H1299/PhTERT-driven SEAP reporter system); H1299; compound concentration 100 μM; read-out: MTT (Inhibition μM ± SD)

LINE NOTATION: Nc1ccc2c(c1)C(=O)c1cc(N)ccc1C2=O
viability at 24 h, 100 µM [%]: 65

LINE NOTATION: CCCNCC(=O)Nc1ccc2c(c1)C(=O)c1cc(NC(=O)CNCCC)ccc1C2=O
viability at 24 h, 100 µM [%]: 14

LINE NOTATION: O=C(Nc1ccc2c(c1)C(=O)c1cc(NC(=O)c3ccccc3)ccc1C2=O)c1ccccc1
viability at 24 h, 100 µM [%]: 41

LINE NOTATION: CC(C)CNCC(=O)Nc1ccc2c(c1)C(=O)c1cc(NC(=O)CNCC(C)C)ccc1C2=O
viability at 24 h, 100 µM [%]: 11

LINE NOTATION: O=C(CCN1CCCC1)Nc1ccc2c(c1)C(=O)c1cc(NC(=O)CCN3CCCC3)ccc1C2=O
viability at 24 h, 100 µM [%]: 12

LINE NOTATION: CC(C)NCC(=O)Nc1ccc2c(c1)C(=O)c1cc(NC(=O)CNC(C)C)ccc1C2=O
viability at 24 h, 100 µM [%]: 6

LINE NOTATION: O=C(CCc1ccccc1)Nc1ccc2c(c1)C(=O)c1cc(NC(=O)CCc3ccccc3)ccc1C2=O
viability at 24 h, 100 µM [%]: 76

---

system: hTERT expression; experiment: SEAP assay in hTERT-BJ1-PTERT(3.4)-SEAP cells; type: cell-based; settings: Homo sapiens; BJ1; compound concentration 10 μM; read-out: SEAP (Inhibition μM ± SD)

COMPOUND: CCCCNCC(=O)Nc1ccc2c(c1)C(=O)c1cc(NC(=O)CNCCCC)ccc1C2=O [Compound 5]
activity at 10 µM, %: 24
//
COMPOUND: CCC(=O)Nc1ccc2c(c1)C(=O)c1cc(NC(=O)CC)ccc1C2=O [Compound 27, 2,7-Bis(propionamido)anthraquinone]
activity at 10 µM, %: 64
//
COMPOUND: O=C(CCN1CCCC1)Nc1ccc2c(c1)C(=O)c1cc(NC(=O)CCN3CCCC3)ccc1C2=O [Compound 18]
activity at 10 µM, %: 67
//
COMPOUND: CN1CCN(CCC(=O)Nc2ccc3c(c2)C(=O)c2cc(NC(=O)CCN4CCN(C)CC4)ccc2C3=O)CC1 [Compound 23]
activity at 10 µM, %: 138
//
COMPOUND: O=C1c2ccc(NC(=O)C3CCCCC3)cc2C(=O)c2cc(NC(=O)C3CCCCC3)ccc21 [Compound 34]
activity at 10 µM, %: 14

Data origin, for the record: patent US20090253709A1
